Entry source: patent US20020150536

experimental_system: integrin alphaV beta3 (Homo sapiens, UniProt P06756;P06756;P05106 P06756:31-889,P06756:891-1048,P05106:27-788)
Sequence (P06756 31-889, chain 1 of 3): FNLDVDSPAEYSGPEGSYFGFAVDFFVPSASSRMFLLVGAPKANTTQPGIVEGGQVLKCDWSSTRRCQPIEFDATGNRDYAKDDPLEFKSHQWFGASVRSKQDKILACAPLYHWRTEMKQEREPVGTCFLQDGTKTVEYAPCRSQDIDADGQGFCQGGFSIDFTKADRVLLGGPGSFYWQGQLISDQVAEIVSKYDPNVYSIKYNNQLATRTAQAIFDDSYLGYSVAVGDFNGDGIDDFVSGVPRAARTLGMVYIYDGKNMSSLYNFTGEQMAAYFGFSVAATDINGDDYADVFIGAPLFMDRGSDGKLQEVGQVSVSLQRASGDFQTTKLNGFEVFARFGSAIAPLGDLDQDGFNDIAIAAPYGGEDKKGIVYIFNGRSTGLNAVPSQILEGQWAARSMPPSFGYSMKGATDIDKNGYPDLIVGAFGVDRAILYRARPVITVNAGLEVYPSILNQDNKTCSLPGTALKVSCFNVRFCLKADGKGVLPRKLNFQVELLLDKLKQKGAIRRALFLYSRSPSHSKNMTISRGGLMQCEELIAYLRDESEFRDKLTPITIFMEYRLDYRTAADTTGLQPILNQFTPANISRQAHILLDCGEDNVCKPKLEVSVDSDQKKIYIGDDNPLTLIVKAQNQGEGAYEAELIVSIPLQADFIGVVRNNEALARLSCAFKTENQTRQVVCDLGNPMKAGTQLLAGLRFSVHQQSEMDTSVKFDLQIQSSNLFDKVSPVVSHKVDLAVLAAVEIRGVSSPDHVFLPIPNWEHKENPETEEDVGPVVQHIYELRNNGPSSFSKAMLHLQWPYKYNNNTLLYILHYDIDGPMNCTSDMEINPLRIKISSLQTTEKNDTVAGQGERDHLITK
Sequence (P06756 891-1048, chain 2 of 3): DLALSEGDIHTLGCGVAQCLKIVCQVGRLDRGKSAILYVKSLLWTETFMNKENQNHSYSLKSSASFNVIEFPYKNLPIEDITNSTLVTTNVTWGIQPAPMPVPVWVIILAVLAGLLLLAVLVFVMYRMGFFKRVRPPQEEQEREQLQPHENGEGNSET
Sequence (P05106 27-788, chain 3 of 3): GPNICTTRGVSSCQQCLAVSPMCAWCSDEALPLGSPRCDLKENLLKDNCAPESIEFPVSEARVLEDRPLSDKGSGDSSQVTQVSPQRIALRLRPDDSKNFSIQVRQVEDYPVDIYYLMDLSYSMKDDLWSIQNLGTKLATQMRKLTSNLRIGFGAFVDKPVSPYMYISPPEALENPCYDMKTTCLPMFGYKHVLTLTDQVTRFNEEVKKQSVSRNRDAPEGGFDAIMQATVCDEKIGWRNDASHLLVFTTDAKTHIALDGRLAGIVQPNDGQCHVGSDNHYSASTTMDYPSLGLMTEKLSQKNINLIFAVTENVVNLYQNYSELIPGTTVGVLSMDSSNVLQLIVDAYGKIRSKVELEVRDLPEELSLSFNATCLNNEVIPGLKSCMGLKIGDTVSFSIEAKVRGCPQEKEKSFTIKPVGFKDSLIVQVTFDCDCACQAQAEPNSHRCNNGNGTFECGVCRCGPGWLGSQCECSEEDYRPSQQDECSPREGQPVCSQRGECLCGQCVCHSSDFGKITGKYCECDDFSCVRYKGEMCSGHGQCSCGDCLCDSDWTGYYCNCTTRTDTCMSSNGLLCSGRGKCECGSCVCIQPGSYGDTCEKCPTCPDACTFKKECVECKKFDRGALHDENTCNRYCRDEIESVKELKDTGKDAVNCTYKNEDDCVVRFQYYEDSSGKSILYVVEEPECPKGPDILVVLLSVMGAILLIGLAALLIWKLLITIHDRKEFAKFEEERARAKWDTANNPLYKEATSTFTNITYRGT
experiment_description: inhibition; inhibition of biotinylated vitronectin binding (10 nM), room temperature
endpoint_name: IC50 (nM)
Provide only the numeric value, understood in nM.

Q: Give me measured IC50, please, for this binder: 17.16 (ssRNA, 2'-F C and U) RNA: GGGAGACAAGAAUAAACGCUCAAUUCAACGCUGUGAAGGGCUUAUACGAGCGGAUUACCCUUCGACAGGAGGCUCACAACAGGC
Result: 4.7
